Source listed as the supplement of paper PMC11061612.

Property: Bliss excess; scope: individual compounds
System: HCT-15 (Colorectal Carcinoma);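 also: after 72 h of two-drug dosing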
Test: Bliss excess, mean over the matrix (fraction); higher = more synergy
Simply state the number, no unit and no words.

These recorded examples may help you get a feel for the data.
CC1(C)CCC(CN2CCN(c3ccc(C(=O)NS(=O)(=O)c4ccc(NCC5CCOCC5)c([N+](=O)[O-])c4)c(Oc4cnc5[nH]ccc5c4)c3)CC2)=C(c2ccc(Cl)cc2)C1 [Venetoclax] + Cc1cc2ncnn2cc1Nc1ncc2c(n1)n(C1CCOCC1)c(=O)n2C [AZD7648] (first compound max 1 µM, 7x7, partner max 10 µM)    -0.0043
Cn1cnc2c(F)c(Nc3ccc(Br)cc3Cl)c(C(=O)NOCCO)cc21 [Selumetinib] + C[C@@H]1COCCN1C2=NC(=NC(=C2)C3(CC3)[S@](=N)(=O)C)C4=C5C=CNC5=NC=C4 [AZD6738] (first compound max 10 µM, 7x7, partner max 10 µM)    -0.0057

Sample COc1nnc2ccc(N3CCC(c4ccc(OCCN5CCN(C)C(=O)[C@H]5C)cc4)CC3)nn12 [AZD5153] + C=CCn1c(=O)c2cnc(Nc3ccc(N4CCN(C)CC4)cc3)nc2n1-c1cccc(C(C)(C)O)n1 [AZD1775] (first compound max 1 µM, partner max 1 µM) — what was its Bliss excess?
-0.0738

Sample Cc1c2c(nn1C)CSCc1cc(n(C)n1)CSc1cc(c3ccccc3c1)OCCCc1c(C(=O)O)n(C)c3c-2c(Cl)ccc13 [AZD5991] + CCN(CCO)CCCOc1ccc2c(Nc3cc(CC(=O)Nc4cccc(F)c4)[nH]n3)ncnc2c1 [AZD2811] (first compound max 1 µM, 7x7, partner max 1 µM) — what was its Bliss excess?
0.0432
